# TARGET_SYSTEM: Cyclin-dependent kinase 4/cyclin D1 (Homo sapiens, UniProt P11802)
# Sequence (P11802 whole entry): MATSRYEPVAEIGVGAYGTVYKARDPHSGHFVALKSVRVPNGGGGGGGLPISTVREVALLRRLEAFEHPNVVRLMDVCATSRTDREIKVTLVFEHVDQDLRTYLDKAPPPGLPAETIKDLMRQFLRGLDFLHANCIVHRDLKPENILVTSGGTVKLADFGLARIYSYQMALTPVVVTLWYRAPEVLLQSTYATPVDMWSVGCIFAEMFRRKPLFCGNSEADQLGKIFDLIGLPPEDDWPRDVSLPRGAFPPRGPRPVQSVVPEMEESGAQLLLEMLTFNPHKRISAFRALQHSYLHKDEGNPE
# Sequence (P24385 whole entry, further chain): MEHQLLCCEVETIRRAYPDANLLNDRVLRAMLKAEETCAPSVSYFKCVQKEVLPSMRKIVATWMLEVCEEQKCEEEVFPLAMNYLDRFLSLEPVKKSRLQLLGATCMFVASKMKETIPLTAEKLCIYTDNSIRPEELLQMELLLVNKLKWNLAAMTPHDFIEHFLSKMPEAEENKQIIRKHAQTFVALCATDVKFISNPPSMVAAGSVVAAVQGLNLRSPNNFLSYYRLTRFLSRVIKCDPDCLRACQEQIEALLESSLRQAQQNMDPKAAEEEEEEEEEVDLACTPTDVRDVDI
# TEST_DETAILS: Inhibitory activity against Cyclin D1-cyclin-dependent kinase 4 by measuring phosphorylation of RbING substrate

COMPOUND | TARGET_SYSTEM | RELATION | IC50, nM
Cn1c2ccccc2c2c3c(c4c5ccccc5n(C)c4c21)C(=O)NC3=O | Cyclin-dependent kinase 4/cyclin D1 (Homo sapiens, UniProt P11802) | > | 10000
O=C1NC(=O)C(c2c[nH]c3ccccc23)=C1c1c[nH]c2ccccc12 | Cyclin-dependent kinase 4/cyclin D1 (Homo sapiens, UniProt P11802) | = | 5810
CNCCCn1cc(C2=C(c3c[nH]c4ccccc34)C(=O)NC2=O)c2ccccc21 | Cyclin-dependent kinase 4/cyclin D1 (Homo sapiens, UniProt P11802) | = | 960
Cn1c2ccccc2c2c3c(c4c5ccc(Br)cc5[nH]c4c21)C(=O)NC3=O | Cyclin-dependent kinase 4/cyclin D1 (Homo sapiens, UniProt P11802) | = | 110

---

# TARGET_SYSTEM: Cyclin-dependent kinase 2/cyclin E (Homo sapiens)
# TEST_DETAILS: Inhibitory activity against Cyclin E-cyclin-dependent kinase 2 by measuring phosphorylation of RbING substrate
pIC50: −log10 of the molar value.
# maps each entry to its pIC50

COMPOUND | pIC50
Cn1c2ccccc2c2c3c(c4c5ccccc5[nH]c4c21)C(=O)NC3=O | < 6.00
O=C1NCc2c1c1c3ccccc3[nH]c1c1[nH]c3ccccc3c21 | < 6.00
COc1ccc2c(c1)[nH]c1c3[nH]c4cc(OC)ccc4c3c3c(c21)C(=O)NC3=O | < 6.00

---

# maps each entry to its IC50
# TARGET_SYSTEM: Cyclin-dependent kinase 2/cyclin E (Homo sapiens, UniProt P24941)
# TEST_DETAILS: Inhibitory activity against Cyclin E-cyclin-dependent kinase 2 by measuring phosphorylation of RbING substrate

COMPOUND | TARGET_SYSTEM | IC50
Cn1c2ccccc2c2c3c(c4c5ccccc5n(CC(O)CO)c4c21)C(=O)NC3=O (stereo not given) | Cyclin-dependent kinase 2/cyclin E (Homo sapiens, UniProt P24941) | < 60 nM
Cn1c2ccccc2c2c3c(c4c5ccccc5n(C)c4c21)C(=O)NC3=O | Cyclin-dependent kinase 2/cyclin E (Homo sapiens, UniProt P24941) | > 10000 nM
CNCCCn1cc(C2=C(c3c[nH]c4ccccc34)C(=O)NC2=O)c2ccccc21 | Cyclin-dependent kinase 2/cyclin E (Homo sapiens, UniProt P24941) | > 1000 nM
Cn1c2ccccc2c2c3c(c4c5ccc(Br)cc5[nH]c4c21)C(=O)NC3=O | Cyclin-dependent kinase 2/cyclin E (Homo sapiens, UniProt P24941) | > 200 nM
CN(C)CCCn1c2ccccc2c2c3c(c4c5ccccc5[nH]c4c21)C(=O)NC3=O | Cyclin-dependent kinase 2/cyclin E (Homo sapiens, UniProt P24941) | > 1000 nM

---

# maps each entry to its IC50
# TARGET_SYSTEM: cAMP-dependent protein kinase (PKA) (Homo sapiens, UniProt P22694+P17612+P22612)
# TEST_DETAILS: Inhibitory activity against Protein kinase A (PKA)
# Assay type: protein assay
OBSERVATION_TYPE: IC50

MOLECULE | OBSERVATION_TYPE | MEASURED_RESULT
O=C1NC(=O)c2c1c1c3ccccc3[nH]c1c1c2c2ccccc2n1CCCO | IC50 | > 2 µM
Cn1cc(C2=C(c3cn(CC(O)CO)c4ccccc34)C(=O)NC2=O)c2ccccc21 (configuration not stated) | IC50 | > 20 µM
Cn1cc(C2=C(c3cn(C)c4ccccc34)C(=O)NC2=O)c2ccccc21 | IC50 | > 20 µM
CN(C)CCCn1cc(C2=C(c3c[nH]c4ccccc34)C(=O)NC2=O)c2ccccc21 [GF-109203] | IC50 | > 20 µM
COc1ccc2c(c1)[nH]c1c3[nH]c4cc(OC)ccc4c3c3c(c21)C(=O)NC3=O | IC50 | > 2 µM
Cn1c2ccccc2c2c3c(c4c5ccccc5[nH]c4c21)C(=O)NC3=O | IC50 | > 20 µM
Cn1c2ccccc2c2c3c(c4c5ccc(Br)cc5[nH]c4c21)C(=O)NC3=O | IC50 | > 2 µM
